# Test system: HPPD polypeptides
# assay_overview: coupled HPPD activity assay: turnover and residual turnover in crude extracts
# Format: biochemical, Pseudomonas fluorescens
# condition_notes: 100 μM Cmpd. 1; signal change with inhibitor divided by signal change without inhibitor
Known Residual turnover [%] of a selection of molecules
Answer with a number only, understood to be in %.

molecule	result_number
65 (protein, mutant HPPD polypeptide) MADLYENPMGLMGFEFIEFASPTPGTLEPIFEIMGFTKVATHRSKNVHLYRQGEINLILNNEPNSIASYFAAEHGPSVCGMAFRVKDSQKAYNRALELGAQPIHIDTGPMELNLPAIKGIGGAPLYLIDRFGEGSSIYDIDFVYLEGVERNPVGAGLKVIDHLTHNVYRGRMVYWANFYEKLFNFREARYFDIKGEYTGLTSKAMSAPDGMIRIPLNEESSKGAGQIEEFLMQFNGEGIQHVAFLTDDLVKTWDALKKIGMRFMTAPADSYYEMLEGRLPDHGEPVDQLQARGILLDGSSVEGDKRLLLQIFSERLMGPVFFEFIQRKGDDGFGPHSFKVLFESMERDQVRRGVLTAD	54

Below: the item to evaluate.
Ask: Identify measured Residual turnover [%] corresponding to 34 (protein, mutant HPPD polypeptide) MADLYENPMGLMGFEFIEFASPTPGTLEPIFEIMGFTKVATHRSKNVHLYRQGEINLILNNEPNSIASYFAAEHGPSVCGMAFRVKDSQKAYNRALELGAQPIHIDTGPMELNLPAIKGIGGAPLYLIDRFGEGSSIYDIDFVYLEGVERNPVGAGLKVIDHLTHNVYRGRMVYWANFYEKLFNFREARYFDIKGEYTGLTSKAMSAPDGMIRIPLNEESSKGAGQIEEFLMQFNGEGIQHVAFLTDDLVKTWDALKKIGMRFMTAPGDNYYEMLEGRLPDHGEPVDQLQARGILLDGSSVEGDKRLLLQIFSETLMGPVFFEFIQRKGDDGFGPHSFKVLFESVERDQVRRGVLTAD
Reply: 47
